tested on: MALME-3M melanoma; assay: NCI tumour cell line growth inhibition, 48 h
property: TGI

Sure, the documented TGI for "CCOC(=O)/C(=C\n1c(=O)sc2ccccc21)C(=O)c1ccccc1" is > 100 µM

Noted for CCc1cn(C2CC(CO)C(CO)S2)c(=O)[nH]c1=O (configuration not stated) : its TGI reads > 100 µM

According to the records, this compound O=C1Sc2sc(=S)sc2SC1c1ccccc1 (configuration not stated) displays TGI of > 83.5 µM

Entry under test: C#CCNC(CCCN=C(N)N)C(=O)O (configuration not stated) . Its TGI was > 100 µM

Reported TGI ( "O=C(O)c1cc(-c2ccc3cc(O)c(O)cc3c2)ccc1O" ) = > 12.5 µM

Sure, the documented TGI for "O=C1CSc2ccnc(=O)n21" is > 100 µM

For record "Nc1nc(N)c2ncn(Cc3ccccc3CO)c2n1" the listed TGI is > 100 µM
